Entries and their IC50
# System Name: XIAP BIR3 (N-His-Tb-BIR3(241-356, XIAP)) (Homo sapiens (Human))
# Format: binding
# Applied Conditions: 130 nM N-His-Tb-BIR3(241-356, XIAP), 1.4 nM fluoresceinated modified SMAC peptide, 60 minutes room temperature; read-out: XIAP BIR3 FPA IC50
Reported Property: IC50 (µM)

1. CN[C@@H](C)C(=O)N[C@H](C(=O)N1C[C@@H](NC(=O)c2ccc(CN(C(=O)[C@@H]3Cc4ccccc4CN3C(=O)[C@@H](NC(=O)[C@H](C)NC)C(C)(C)C)[C@H](C)c3cccc(OC)c3)cc2)C[C@H]1C(=O)N[C@@H]1CCCc2ccccc21)C(C)(C)C : 0.06
2. CN[C@@H](C)C(=O)N[C@H](C(=O)N1Cc2ccccc2C[C@H]1CN(Cc1cccc2ccccc12)C(=O)c1ccc(C(=O)N[C@H]2C[C@@H](C(=O)N[C@@H]3CCCc4ccccc43)N(C(=O)[C@@H](NC(=O)[C@H](C)NC)C(C)(C)C)C2)cc1)C(C)(C)C : 0.16
3. CN[C@@H](C)C(=O)N[C@H](C(=O)N1Cc2ccccc2C[C@H]1CN(C(=O)c1ccc(C(=O)N[C@H]2C[C@@H](C(=O)N[C@@H]3CCCc4ccccc43)N(C(=O)[C@@H](NC(=O)[C@H](C)NC)C(C)(C)C)C2)cc1)[C@H](C)c1ccc2ccccc2c1)C(C)(C)C : 0.25
4. CN[C@@H](C)C(=O)N[C@H](C(=O)N1C[C@@H](NC(=O)c2ccc(CN(C(=O)[C@@H]3Cc4ccccc4CN3C(=O)[C@@H](NC(=O)[C@H](C)NC)C(C)(C)C)[C@H](C)c3ccccc3Cl)cc2)C[C@H]1C(=O)N[C@@H]1CCCc2ccccc21)C(C)(C)C : 0.22
5. CN[C@@H](C)C(=O)N[C@H](C(=O)N1Cc2ccccc2C[C@H]1CN(CCc1cccc2ccccc12)C(=O)c1ccc(C(=O)N[C@H]2C[C@@H](C(=O)N[C@@H]3CCCc4ccccc43)N(C(=O)[C@@H](NC(=O)[C@H](C)NC)C(C)(C)C)C2)cc1)C(C)(C)C : 0.12
6. CC[C@H](c1ccccc1)N(Cc1ccc(C(=O)N[C@H]2C[C@@H](C(=O)N[C@@H]3CCCc4ccccc43)N(C(=O)[C@@H](NC(=O)[C@H](C)NC)C(C)(C)C)C2)cc1)C(=O)[C@@H]1Cc2ccccc2CN1C(=O)[C@@H](NC(=O)[C@H](C)NC)C(C)(C)C : 0.11
7. CN[C@@H](C)C(=O)N[C@H](C(=O)N1CC(NC(=O)c2ccc(CN(C(=O)[C@@H]3Cc4ccccc4CN3C(=O)[C@@H](NC(=O)[C@H](C)NC)C(C)(C)C)C(C)c3ccccc3Cl)cc2)C[C@H]1C(=O)NC1CCCc2ccccc21)C(C)(C)C (some centres unmarked) : 0.19
8. CN[C@@H](C)C(=O)N[C@H](C(=O)N1CCc2ccccc2[C@H]1C(=O)N(CCc1ccccc1)Cc1ccc(C(=O)NC2C[C@@H](C(=O)NC3CCCc4ccccc43)N(C(=O)[C@@H](NC(=O)[C@H](C)NC)C(C)(C)C)C2)cc1)C(C)(C)C (some centres unmarked) : 0.07
9. CN[C@@H](C)C(=O)N[C@H](C(=O)N1Cc2ccccc2C[C@H]1CN(C(=O)c1ccc(C(=O)N[C@H]2C[C@@H](C(=O)N[C@@H]3CCCc4ccccc43)N(C(=O)[C@@H](NC(=O)[C@H](C)NC)C(C)(C)C)C2)cc1)[C@H](C)Cc1ccc2ccccc2c1)C(C)(C)C : 0.27
10. CN[C@@H](C)C(=O)N[C@H](C(=O)N1CC(NC(=O)C2CC2CN(C(=O)[C@@H]2Cc3ccccc3CN2C(=O)[C@@H](NC(=O)[C@H](C)NC)C(C)(C)C)[C@H](C)c2ccccc2F)C[C@H]1C(=O)NC1CCCc2ccccc21)C(C)(C)C (some centres unmarked) : 0.07
11. CN[C@@H](C)C(=O)N[C@H](C(=O)N1Cc2ccccc2C[C@H]1CN(Cc1cccc(C)c1C)C(=O)c1ccc(C(=O)N[C@H]2C[C@@H](C(=O)N[C@@H]3CCCc4ccccc43)N(C(=O)[C@@H](NC(=O)[C@H](C)NC)C(C)(C)C)C2)cc1)C(C)(C)C : 0.09
12. CN[C@@H](C)C(=O)N[C@H](C(=O)N1Cc2ccccc2C[C@H]1CN(C(=O)c1ccc(C(=O)N[C@H]2C[C@@H](C(=O)N[C@@H]3CCCc4ccccc43)N(C(=O)[C@@H](NC(=O)[C@H](C)NC)C(C)(C)C)C2)cc1)[C@H](C)c1ccccc1F)C(C)(C)C : 0.23
13. CN[C@@H](C)C(=O)N[C@H](C(=O)N1C[C@@H](NC(=O)c2ccc(CN(Cc3cccc(Cl)c3Cl)C(=O)[C@@H]3Cc4ccccc4CN3C(=O)[C@@H](NC(=O)[C@H](C)NC)C(C)(C)C)cc2)C[C@H]1C(=O)N[C@@H]1CCCc2ccccc21)C(C)(C)C : 0.07
14. CCOc1ccccc1[C@@H](C)N(Cc1ccc(C(=O)N[C@H]2C[C@@H](C(=O)N[C@@H]3CCCc4ccccc43)N(C(=O)[C@@H](NC(=O)[C@H](C)NC)C(C)(C)C)C2)cc1)C(=O)[C@@H]1Cc2ccccc2CN1C(=O)[C@@H](NC(=O)[C@H](C)NC)C(C)(C)C : 0.16

* * *

Entries and their IC50
# System Name: XIAP BIR3 (N-His-Tb-BIR3(241-356, XIAP)) (Homo sapiens (Human), UniProt P98170)
# Sequence (P98170 241-356): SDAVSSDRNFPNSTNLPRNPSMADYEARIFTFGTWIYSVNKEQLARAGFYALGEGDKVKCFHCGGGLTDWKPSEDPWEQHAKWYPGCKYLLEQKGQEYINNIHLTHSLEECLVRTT
# Assay type: binding
# Applied Conditions: 130 nM N-His-Tb-BIR3(241-356, XIAP), 1.4 nM fluoresceinated modified SMAC peptide, 60 minutes room temperature; read-out: XIAP BIR3 FPA IC50
Counter-ions that a name gives are not always drawn.
Reported Property: IC50 (nM)

1. CN[C@@H](C)C(=O)N[C@H](C(=O)N1Cc2ccccc2CC1C(=O)N(CC1(C(=O)NC2C[C@@H](C(=O)NC3CCCc4ccccc43)N(C(=O)[C@@H](NC(=O)[C@H](C)NC)C(C)(C)C)C2)CC1)[C@@H](COC)c1ccccc1)C(C)(C)C (stereo partly shown) [Example 38, TFA] : 60
2. CN[C@@H](C)C(=O)N[C@H](C(=O)N1C[C@@H](NC(=O)CCCN(C(=O)[C@@H]2Cc3ccccc3CN2C(=O)[C@@H](NC(=O)[C@H](C)NC)C(C)(C)C)[C@H](C)c2ccccc2F)C[C@H]1C(=O)N[C@@H]1CCCc2ccccc21)C(C)(C)C : 60
3. CN[C@@H](C)C(=O)N[C@H](C(=O)N1C[C@@H](NC(=O)c2ccc(CN(C(=O)[C@@H]3Cc4ccccc4CN3C(=O)[C@@H](NC(=O)[C@H](C)NC)C(C)(C)C)[C@@H](C)c3cccc(Cl)c3)cc2)C[C@H]1C(=O)N[C@@H]1CCCc2ccccc21)C(C)(C)C : 120
4. CN[C@@H](C)C(=O)N[C@H](C(=O)N1Cc2ccccc2C[C@H]1CN(CCc1ccccc1)C(=O)c1ccc(C(=O)N[C@H]2C[C@@H](C(=O)N[C@@H]3CCCc4ccccc43)N(C(=O)[C@@H](NC(=O)[C@H](C)NC)C(C)(C)C)C2)cc1)C(C)(C)C : 60

* * *

Entries and their pIC50
# System Name: XIAP BIR3 (N-His-Tb-BIR3(241-356, XIAP)) (Homo sapiens (Human), UniProt P98170)
# Type: binding
# Applied Conditions: 130 nM N-His-Tb-BIR3(241-356, XIAP), 1.4 nM fluoresceinated modified SMAC peptide, 60 minutes room temperature; read-out: XIAP BIR3 FPA IC50
pIC50: −log10 of the molar value.
Reported Property: pIC50

1) CN[C@@H](C)C(=O)N[C@H](C(=O)N1C[C@@H](NC(=O)c2ccc(CN(Cc3ccc4ccccc4c3)C(=O)[C@@H]3Cc4ccccc4CN3C(=O)[C@@H](NC(=O)[C@H](C)NC)C(C)(C)C)cc2)C[C@H]1C(=O)N[C@@H]1CCCc2ccccc21)C(C)(C)C : 7.40
2) CN[C@@H](C)C(=O)N[C@H](C(=O)N1CCc2ccccc2[C@H]1C(=O)N(Cc1ccc(C(=O)N[C@H]2C[C@@H](C(=O)N[C@@H]3CCCc4ccccc43)N(C(=O)[C@@H](NC(=O)[C@H](C)NC)C(C)(C)C)C2)cc1)[C@H](C)c1ccccc1F)C(C)(C)C : 6.54
3) CN[C@@H](C)C(=O)N[C@H](C(=O)N1C[C@@H](NC(=O)c2ccc(CN(C(=O)[C@@H]3Cc4ccccc4CN3C(=O)[C@@H](NC(=O)[C@H](C)NC)C(C)(C)C)[C@H](C)c3ccccc3)cc2)C[C@H]1C(=O)N[C@@H]1CCCc2ccccc21)C(C)(C)C : 6.92
4) CN[C@@H](C)C(=O)N[C@H](C(=O)N1C[C@@H](NC(=O)c2ccc(CN(C(=O)[C@@H]3Cc4ccccc4CN3C(=O)[C@@H](NC(=O)[C@H](C)NC)C(C)(C)C)[C@H](C)C(c3ccccc3)c3ccccc3)cc2)C[C@H]1C(=O)N[C@@H]1CCCc2ccccc21)C(C)(C)C : 6.54
